- target: MASTL (Homo sapiens)
- Construct: recombinant GST-tagged-MASTL
- Sequence (Q96GX5 whole entry): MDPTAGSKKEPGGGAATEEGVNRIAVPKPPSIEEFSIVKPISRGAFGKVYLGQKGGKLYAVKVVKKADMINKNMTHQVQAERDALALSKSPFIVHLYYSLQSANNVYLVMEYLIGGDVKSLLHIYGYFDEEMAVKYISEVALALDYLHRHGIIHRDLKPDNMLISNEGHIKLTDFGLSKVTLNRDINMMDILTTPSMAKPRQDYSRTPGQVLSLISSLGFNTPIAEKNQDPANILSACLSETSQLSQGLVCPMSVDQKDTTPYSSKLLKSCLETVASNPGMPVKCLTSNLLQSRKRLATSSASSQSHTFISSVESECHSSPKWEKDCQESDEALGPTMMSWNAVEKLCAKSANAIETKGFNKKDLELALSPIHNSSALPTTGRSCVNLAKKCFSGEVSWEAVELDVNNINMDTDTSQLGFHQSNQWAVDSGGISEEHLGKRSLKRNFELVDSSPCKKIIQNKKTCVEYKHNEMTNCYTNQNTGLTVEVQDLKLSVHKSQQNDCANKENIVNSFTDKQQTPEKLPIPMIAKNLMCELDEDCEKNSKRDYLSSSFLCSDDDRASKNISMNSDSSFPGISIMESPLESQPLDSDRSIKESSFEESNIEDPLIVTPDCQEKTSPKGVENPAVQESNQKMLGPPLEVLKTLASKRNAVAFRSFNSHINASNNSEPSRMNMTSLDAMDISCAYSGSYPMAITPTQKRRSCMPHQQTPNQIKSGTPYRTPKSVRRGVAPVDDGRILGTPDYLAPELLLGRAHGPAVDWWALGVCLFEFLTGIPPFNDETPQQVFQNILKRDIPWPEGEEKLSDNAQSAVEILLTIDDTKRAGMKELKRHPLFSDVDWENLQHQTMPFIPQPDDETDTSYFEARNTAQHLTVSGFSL
- measurement_notes: in vitro kinase assay with recombinant GST-MASTL and His-ENSA substrate; also HTRF KinEASE and ADP-Glo
pIC50: −log10 of the molar value.

- smiles_notation: "N#CCc1ccc(Nc2nc(Nc3cc(C4CC4)[nH]n3)c3ccccc3n2)cc1"
  pIC50: 7.43
